system: WEHI-164; experiment: Cytotoxicity against mouse WEHI164 cells after 72 hrs by MTT assay; assay type: functional, cell-based; settings: WEHI-164, 72 h
reported_endpoint: IC50 (mg/L)

1) C/C=C(\C)C(=O)O[C@H]1[C@H](OC(C)=O)[C@]2(CO)[C@H](O)C[C@]3(C)C(=CC[C@@H]4[C@@]5(C)CC[C@H](O[C@@H]6O[C@H](C(=O)O)[C@@H](O[C@@H]7OC[C@@H](O)[C@H](O)[C@H]7O)[C@H](O)[C@H]6O[C@@H]6OC[C@@H](O)[C@H](O)[C@H]6O)C(C)(C)[C@@H]5CC[C@]43C)[C@@H]2CC1(C)C    2.1
2) C/C=C(/C)C(=O)O[C@H]1[C@H](OC(C)=O)[C@]2(CO)[C@H](O)C[C@]3(C)C(=CC[C@@H]4[C@@]5(C)CC[C@H](O[C@@H]6O[C@H](C(=O)O)[C@@H](O[C@@H]7OC[C@@H](O)[C@H](O)[C@H]7O)[C@H](O)[C@H]6O[C@@H]6OC[C@@H](O)[C@H](O)[C@H]6O)[C@](C)(CO)[C@@H]5CC[C@]43C)[C@@H]2CC1(C)C    3.2

----------
system: WEHI-164; assay: Cytotoxicity against mouse WEHI164 cells after 72 hrs by MTT assay; format: functional, cell-based; details: WEHI-164, 72 h
reported_endpoint: IC50 (µg/mL)

1. C/C=C(\C)C(=O)O[C@H]1[C@H](OC(C)=O)[C@]2(CO)[C@H](O)C[C@]3(C)C(=CC[C@@H]4[C@@]5(C)CC[C@H](O[C@@H]6O[C@H](C(=O)O)[C@@H](O[C@@H]7OC[C@@H](O)[C@H](O)[C@H]7O)[C@H](O)[C@H]6O[C@@H]6OC[C@@H](O)[C@H](O)[C@H]6O)[C@](C)(CO)[C@@H]5CC[C@]43C)[C@@H]2CC1(C)C [PAVIOSIDEG]    3.5
2. C/C=C(\C)C(=O)O[C@H]1[C@H](OC(C)=O)[C@]2(CO)[C@H](O)C[C@]3(C)C(=CC[C@@H]4[C@@]5(C)CC[C@H](O[C@@H]6O[C@H](C(=O)O)[C@@H](O[C@@H]7O[C@H](CO)[C@@H](O)[C@H](O)[C@H]7O)[C@H](O)[C@H]6O[C@@H]6OC[C@@H](O)[C@H](O)[C@H]6O)C(C)(C)[C@@H]5CC[C@]43C)[C@@H]2CC1(C)C [PAVIOSIDEA]    4.8
3. C/C=C(\C)C(=O)O[C@H]1[C@H](OC(C)=O)[C@]2(CO)[C@H](O)C[C@]3(C)C(=CC[C@@H]4[C@@]5(C)CC[C@H](O[C@@H]6O[C@H](C(=O)O)[C@@H](O[C@@H]7O[C@H](CO)[C@H](O)[C@H](O)[C@H]7O)[C@H](O)[C@H]6O[C@@H]6OC[C@@H](O)[C@H](O)[C@H]6O)C(C)(C)[C@@H]5CC[C@]43C)[C@@H]2CC1(C)C [PAVIOSIDEC]    6.5
4. C/C=C(/C)C(=O)O[C@H]1[C@H](OC(C)=O)[C@]2(CO)[C@H](O)C[C@]3(C)C(=CC[C@@H]4[C@@]5(C)CC[C@H](O[C@@H]6O[C@H](C(=O)O)[C@@H](O[C@@H]7O[C@H](CO)[C@@H](O)[C@H](O)[C@H]7O)[C@H](O)[C@H]6O[C@@H]6OC[C@@H](O)[C@H](O)[C@H]6O)C(C)(C)[C@@H]5CC[C@]43C)[C@@H]2CC1(C)C [PAVIOSIDEB]    4.9
5. C/C=C(/C)C(=O)O[C@H]1[C@H](OC(C)=O)[C@]2(CO)[C@H](O)C[C@]3(C)C(=CC[C@@H]4[C@@]5(C)CC[C@H](O[C@@H]6O[C@H](C(=O)O)[C@@H](O[C@@H]7O[C@H](CO)[C@H](O)[C@H](O)[C@H]7O)[C@H](O)[C@H]6O[C@@H]6OC[C@@H](O)[C@H](O)[C@H]6O)C(C)(C)[C@@H]5CC[C@]43C)[C@@H]2CC1(C)C [PAVIOSIDED]    7.1
6. C/C=C(/C)C(=O)O[C@H]1[C@H](OC(C)=O)[C@]2(CO)[C@H](O)C[C@]3(C)C(=CC[C@@H]4[C@@]5(C)CC[C@H](O[C@@H]6O[C@H](C(=O)O)[C@@H](O[C@@H]7OC[C@@H](O)[C@H](O)[C@H]7O)[C@H](O)[C@H]6O[C@@H]6OC[C@@H](O)[C@H](O)[C@H]6O)C(C)(C)[C@@H]5CC[C@]43C)[C@@H]2CC1(C)C [PAVIOSIDEF]    2.3
